Just for reference, patent US20230272011A1 is where these values come from.

biological target: porcine serum albumin (porcine, UniProt P08835 25-607); assay: binding ELISA, coated albumin, pH 7.4
Sequence (P08835 25-607 limits assumed): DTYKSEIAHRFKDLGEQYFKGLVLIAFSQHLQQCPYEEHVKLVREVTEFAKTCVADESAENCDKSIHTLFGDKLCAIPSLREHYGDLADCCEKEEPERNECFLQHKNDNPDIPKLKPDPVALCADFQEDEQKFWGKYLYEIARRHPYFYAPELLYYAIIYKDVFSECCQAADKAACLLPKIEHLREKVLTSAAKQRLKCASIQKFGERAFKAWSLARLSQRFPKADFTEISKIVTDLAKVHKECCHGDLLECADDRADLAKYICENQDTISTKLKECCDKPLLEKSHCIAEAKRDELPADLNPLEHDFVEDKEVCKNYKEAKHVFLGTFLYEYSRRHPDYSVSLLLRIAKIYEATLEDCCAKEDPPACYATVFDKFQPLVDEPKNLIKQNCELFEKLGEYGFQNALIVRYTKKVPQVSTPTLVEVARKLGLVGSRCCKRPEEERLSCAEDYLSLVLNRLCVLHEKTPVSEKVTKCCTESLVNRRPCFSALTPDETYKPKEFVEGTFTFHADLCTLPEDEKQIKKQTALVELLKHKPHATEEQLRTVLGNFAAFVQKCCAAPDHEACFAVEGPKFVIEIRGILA
assay_metric: pEC50
Scale explanation: pEC50 corresponds to minus log10 of a concentration expressed in moles per litre.

Consider the following illustrative entries.
HSA-36 (designed binder) MIPRGLSEAKPATPEIQEIVDKVKPQLEEKTNETYGKLEAVQYKTQVLAGHYARYWPGSTNYYIKVRAGDNKYMHLKVFNGPWAQKSKVHQADRVLTGYQVDKNKDDELTGFHHHHHH = 6.57
HSA-20 (designed binder) MIPRGLSEAKPATPEIQEIVDKVKPQLEEKTNETYGKLEAVQYKTQVLAGYWAAKWPGSTNYYIKVRAGDNKYMHLKVFNGPFPNTSYDLQADRVLTGYQVDKNKDDELTGFHHHHHH = 6.05
HSA-41 (designed binder, also called HSA-41 parent; HSA-41 AH parent) MIPRGLSEAKPATPEIQEIVDKVKPQLEEKTNETYGKLEAVQYKTQVLANFFQRRWPGSTNYYIKVRAGDNKYMHLKVFNGPWKFRNTDRGADRVLTGYQVDKNKDDELTGFHHHHHH = 7.29

// field: pEC50; key: HSA-18 (designed binder, also called HSA-18 monomer) MIPRGLSEAKPATPEIQEIVDKVKPQLEEKTNETYGKLEAVQYKTQVLADWWQAKWPHSTNYYIKVRAGDNKYMHLKVFNGPYKVHQSSGGADRVLTGYQVDKNKDDELTGFHHHHHH ; value = 6.21

Kindly note the recorded pEC50 for HSA-31 (designed binder) MIPRGLSEAKPATPEIQEIVDKVKPQLEEKTNETYGKLEAVQYKTQVLAVWGPEYQHQSTNYYIKVRAGDNKYMHLKVFNGPNAGWPLVPEADRVLTGYQVDKNKDDELTGFHHHHHH , which is 8.59
